# MEASUREMENT TARGET: T1, NativeRPtag(large)_with_Tags_and_Cys (Thermoanaerobacter tengcongensis)
# T1 construct: Unlabeled in anisotropy assays; coupled through the engineered N-terminal Cys to SulfoLink agarose or maleimide plates in column, pull-down and ELISA assays
# T1 chain: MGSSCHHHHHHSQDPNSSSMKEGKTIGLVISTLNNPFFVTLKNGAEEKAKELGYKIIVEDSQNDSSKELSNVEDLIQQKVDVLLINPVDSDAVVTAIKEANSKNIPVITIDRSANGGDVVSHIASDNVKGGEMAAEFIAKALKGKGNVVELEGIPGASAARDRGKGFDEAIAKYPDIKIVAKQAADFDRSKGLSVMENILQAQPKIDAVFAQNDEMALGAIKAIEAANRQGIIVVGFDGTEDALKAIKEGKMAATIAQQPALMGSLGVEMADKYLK
# ASSAY COMMENT: fluorescence anisotropy, association kinetics
No end group written: not given here. *: point of attachment. RhodamineB = CCN(CC)c1ccc2c(-c3ccccc3C(=O)*)c3ccc(=[N+](CC)CC)cc-3oc2c1
READOUT NAME: Keq (S-S*)

BINDER	Keq (S-S*)
RhodamineB-GEKIANFIPAELKLITKENVQ [RPtag(small) p5a]	1.8
RhodamineB-KIPNFIPAELKLITKENVQ [RPtag(small) Nd2]	0.7
RhodamineB-GEKAPNFIPAELKLITKENVQ [RPtag(small) i4a]	0.9

Item RhodamineB-GEKIPNFIPAELKLITKANVQ [RPtag(small) e18a] has what recorded Keq (S-S*)? 1.1
